# assay.name: in vitro
# run.conditions: African green monkey
assay.metric: CC50 at 3 days (µM)
Give your result in µM as a bare value.

Can you share its CC50 at 3 days? I mean this molecule: Cc1cc2c(C(C)C)c(O)c(O)c(C=O)c2c(O)c1-c1c(C)cc2c(C(C)C)c(O)c(O)c(C=O)c2c1O [Gossypol, gossypol]
14.5

* * *

Entries and their IC50
# System: ZIKV human strain PRVABC59 (2015/Puerto Rico)
# assay.name: Plaque reduction inhibition assay in Vero E6 cells, ZIKV PRVABC59
# Assay type: cell-based, Zika virus (ZIKV)
# run.conditions: Vero E6 cells; Table 7, gossypol derivatives; read-out: ZIKV strains IC50, PRVABC59
Express the result in µM but write the number alone.

CCC(O)/N=C/c1c(O)c(O)c(C(C)C)c2cc(C)c(-c3c(C)cc4c(C(C)C)c(O)c(O)c(/C=N/C(O)CC)c4c3O)c(O)c12 (stereo not shown) = 3.89
Cc1cc2c(C(C)C)c(O)c(O)c3c2c(c1-c1c(C)cc2c(C(C)C)c(O)c(O)c4c2c1OC4N)OC3N (stereo not shown) = 3.33
Cc1cc2c(C(C)C)c(O)c(O)c(/C=N/n3c(=O)[nH][nH]c3=O)c2c(O)c1-c1c(C)cc2c(C(C)C)c(O)c(O)c(/C=N/n3c(=O)[nH][nH]c3=O)c2c1O = 2.36

Next, consider the following compound.
GET /values?readout=IC50&item= "Cc1cc2nc[nH]c2c(N=Cc2c(O)c(O)c(C(C)C)c3cc(C)c(-c4c(C)cc5c(C(C)C)c(O)c(O)c(C=Nc6c(C)c(C)cc7nc[nH]c67)c5c4O)c(O)c23)c1C"
9.1

* * *

# Test system: nine additional ZIKV strains
# assay.name: Plaque reduction inhibition assay, nine additional ZIKV strains taken together
# Type: cell-based
# run.conditions: Zika virus, Vero C1008; range over nine additional strains, Vero E6 cells; read-out: IC50 values against all nine ZIKV strains tested
assay.metric: IC50

IC50 of "Cc1cc2c(C(C)C)c(O)c(O)c(C=O)c2c(O)c1-c1c(C)cc2c(C(C)C)c(O)c(O)c(C=O)c2c1O" on nine additional ZIKV strains?
0.21 to 4.31 µM

* * *

# System: DENV-4-PR 06-65-740 (2006/Puerto Rico)
# assay.name: microbe, parasite or virus in culture
# run.conditions: Dengue virus, DENV4, LLC-MK2, read-out: IC50 DENV-4-PR 06-65-740, LLC-MK2 cells; Table 8
assay.metric: IC50
# answer = value followed by unit

// map "Cc1cc2c(C(C)C)c(O)c(O)c(C=O)c2c(O)c1-c1c(C)cc2c(C(C)C)c(O)c(O)c(C=O)c2c1O" to recorded IC50 (system: DENV-4-PR 06-65-740 (2006/Puerto Rico))
2830 nM

* * *

# assayed.target: ZIKV NS2B-NS3 protein (Zika virus, UniProt Q32ZE1)
# Construct: 49-97) and NS2 protein (residues 1-185) through a covalent
# assay.name: SPR binding to ZIKV NS2B-NS3 protein
# run.conditions: 1:1 binding model, read-out: Binding affinity (KD) to ZIKV NS2B-NS3 protein
assay.metric: Kd (µM)
Value expressed in µM; do not type the unit.

Which value of Kd has been reported for "Cc1cc2c(C(C)C)c(O)c(O)c(/C=N/n3c(=O)[nH][nH]c3=O)c2c(O)c1-c1c(C)cc2c(C(C)C)c(O)c(O)c(/C=N/n3c(=O)[nH][nH]c3=O)c2c1O" in the records?
19.9
